target: PRMT5 (Homo sapiens, UniProt O14744); construct: purchased Viva (custom protein); experiment: PRMT5 biochemical IC50 assay with SAM as cofactor; conditions: PRMT5, SAM as cofactor; read-out: SAM IC50
Sequence (O14744 whole entry): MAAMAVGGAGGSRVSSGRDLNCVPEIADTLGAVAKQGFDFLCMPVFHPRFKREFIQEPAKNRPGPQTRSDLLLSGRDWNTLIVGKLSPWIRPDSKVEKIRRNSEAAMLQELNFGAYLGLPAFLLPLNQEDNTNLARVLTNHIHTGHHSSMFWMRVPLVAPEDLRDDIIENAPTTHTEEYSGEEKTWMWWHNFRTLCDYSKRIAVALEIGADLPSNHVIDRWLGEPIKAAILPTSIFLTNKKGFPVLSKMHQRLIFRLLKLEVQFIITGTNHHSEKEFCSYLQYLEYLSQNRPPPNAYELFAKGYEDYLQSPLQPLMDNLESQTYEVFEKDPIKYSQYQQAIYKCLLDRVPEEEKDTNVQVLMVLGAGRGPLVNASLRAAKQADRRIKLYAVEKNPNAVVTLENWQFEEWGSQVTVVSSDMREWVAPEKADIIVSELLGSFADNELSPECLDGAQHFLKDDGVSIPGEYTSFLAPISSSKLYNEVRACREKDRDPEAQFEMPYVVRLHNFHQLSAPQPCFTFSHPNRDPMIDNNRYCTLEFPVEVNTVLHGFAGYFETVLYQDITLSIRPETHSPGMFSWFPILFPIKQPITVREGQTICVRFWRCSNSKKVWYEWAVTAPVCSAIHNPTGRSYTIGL
Sequence (Q9BQA1 whole entry partner): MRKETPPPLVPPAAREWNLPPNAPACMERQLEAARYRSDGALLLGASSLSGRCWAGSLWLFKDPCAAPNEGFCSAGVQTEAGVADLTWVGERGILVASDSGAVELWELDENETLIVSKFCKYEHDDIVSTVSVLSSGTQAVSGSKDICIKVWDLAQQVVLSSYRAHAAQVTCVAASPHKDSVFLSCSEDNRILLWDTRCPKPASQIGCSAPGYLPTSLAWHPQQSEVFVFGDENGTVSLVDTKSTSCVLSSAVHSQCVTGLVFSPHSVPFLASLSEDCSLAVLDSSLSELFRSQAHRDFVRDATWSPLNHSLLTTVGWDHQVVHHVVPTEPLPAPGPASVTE
Assignment: determine reported IC50 for the given compounds.

Bench note, PRMT5 (Homo sapiens, UniProt O14744): COc1ccccc1[C@@H]1CC[C@@H](C)CN1C(=O)C(=O)Nc1cncc(C(N)=O)c1 (racemic) [Compound 558] , IC50 reads 50 to 500 nM

For the compound CCc1cc(NC(=O)C(=O)N2C[C@@H](C)CC[C@@H]2c2ccc(F)cc2)cnc1C [Compound 779] , the measured IC50 on PRMT5 (Homo sapiens, UniProt O14744) was 50 to 500 nM

Field IC50 (system: PRMT5 (Homo sapiens, UniProt O14744)) for entry COc1ncc(NC(=O)C(=O)N2C[C@@H](C)C(F)(F)C[C@@H]2c2ccc(C)nc2)cc1C(N)=O (single isomer, unassigned) [Compound 908] = 50 to 500 nM

Item Cc1cc([C@H]2CC[C@H](C)CN2C(=O)C(=O)Nc2cncc(C(N)=O)c2)cc(C)c1O (single isomer, unassigned) [Compound 326] was tested on PRMT5 (Homo sapiens, UniProt O14744); the reported IC50 is > 500 nM

Record COc1ncc(NC(=O)C(=O)N2C[C@H](C)CC[C@H]2c2ccc3[nH]cnc3c2)cc1C(N)=O (single isomer, unassigned) [Compound 794] / PRMT5 (Homo sapiens, UniProt O14744), IC50 recorded as 50 to 500 nM

Measured IC50 for this entry Cc1cc(NC(=O)C(=O)N2C[C@H](C)CC[C@H]2c2cc(F)c3[nH]ncc3c2)cnc1N (single isomer, unassigned) [Compound 1191] on PRMT5 (Homo sapiens, UniProt O14744): > 500 nM

====

biological target: PRMT5 (Homo sapiens); construct: purchased Viva (custom protein); test: PRMT5 biochemical IC50 assay with MTA as cofactor; settings: PRMT5, MTA as cofactor; read-out: MTA IC50
Result type: IC50

The reported value for NC(=O)c1cncc(NC(=O)C(=O)N2CCCCC2C2CCCCC2)c1 (single isomer, unassigned) [Compound 108] in terms of IC50 is > 500 nM

For record Cc1cc(NC(=O)C(=O)N2C[C@H](C)CC[C@H]2C2CCNCC2)cnc1N (racemic) the listed IC50 is > 500 nM

For reference, reported IC50 for Cc1ccc([C@@H]2CC[C@@H](C)CN2C(=O)C(=O)Nc2cncc(C)c2)cc1 (single isomer, unassigned) stands at 50 to 500 nM

Given item Cc1cc(NC(=O)C(=O)N2C[C@@H](C)CC[C@@H]2c2ccc3sc([C@H]4CCN(C)C(C)(C)C4)nc3c2)cnc1C (single isomer, unassigned) [Compound 1135] , the value recorded as its IC50 is < 50 nM

Looking up CCc1cc(NC(=O)C(=O)N2C[C@@H](C)CC[C@@H]2c2ccc3sc(CCOC)nc3c2)cnc1N (single isomer, unassigned) , I see its IC50 listed as < 50 nM

Consider COc1ncc(NC(=O)C(=O)N2CCCCC2c2ccccc2)cc1C(N)=O (stereo not shown) [Compound 138] . Its measured IC50 is < 50 nM

Entry under test: Cc1cc([C@@H]2CC[C@@H](C)CN2C(=O)C(=O)Nc2cnc(N)c(C)c2)ccn1 (single isomer, unassigned) . Its IC50 was < 50 nM

Quick note, IC50 for Cc1cc(NC(=O)C(=O)N2C[C@H](C)CC[C@H]2c2ccc(N)cc2)cnc1N (single isomer, unassigned) landed at < 50 nM

Looking up `Cc1ncc(NC(=O)C(=O)N2C[C@@H](C)CC[C@@H]2c2ccc3sc(C4CCN(C)CC4)nc3c2)cc1C(F)F` , I see its IC50 listed as < 50 nM

# IC50 of Cc1cncc(NC(=O)C(=O)N2C[C@@H](C)CC[C@@H]2c2ccc(C)c(C)c2)c1 (single isomer, unassigned) = > 500 nM

So, Cc1cc(NC(=O)C(=O)N2C[C@@H](C)CC[C@@H]2c2cccc(N3CCN(C)CC3)c2)cnc1N (single isomer, unassigned) ? Its IC50 was < 50 nM

Just so you know, measured IC50 for CCc1cc(NC(=O)C(=O)N2C[C@H](C)CC[C@H]2c2ccc(N3CCN(C(C)C)CC3)cc2)cnc1N (single isomer, unassigned) came out at > 500 nM

# compound C[C@@H]1CC[C@@H](c2ccc3sc(CCN(C)C)nc3c2)N(C(=O)C(=O)Nc2cncc(C(N)=O)c2)C1 (single isomer, unassigned) [Compound 1254] ; its IC50 = < 50 nM

Memo: C[C@H]1CC[C@H](c2cccc(N(C)C)c2)N(C(=O)C(=O)Nc2cncc(C(N)=O)c2)C1 (single isomer, unassigned) , reported IC50: > 500 nM

IC50 in this record for CNc1ccc([C@H]2CC[C@H](C)CN2C(=O)C(=O)Nc2cnc(OC)c(C(N)=O)c2)cn1 (single isomer, unassigned) : < 50 nM

The reported IC50 of the compound `CCc1cc(NC(=O)C(=O)N2C[C@@H](C)CC[C@@H]2c2ccc3sc(C4CCN(C)CC4)nc3c2)cnc1C` was < 50 nM

Briefly, IC50 measured for COc1ncc(NC(=O)C(=O)N2C[C@@H](C)CC[C@H]2C2CCCCC2)cc1C(N)=O (single isomer, unassigned) : > 500 nM

Lookup result for COc1ncc(NC(=O)C(=O)N2C[C@@H](C)CC[C@@H]2c2ccc3cnccc3c2)cc1C(N)=O (single isomer, unassigned) ; measured IC50: < 50 nM

# IC50 of NC(=O)c1cncc(NC(=O)C(=O)N2CCCCC2C2CCCCC2)c1 (single isomer, unassigned) [Compound 113] = < 50 nM

Measured IC50, COc1ncc(NC(=O)C(=O)N2C[C@@H](C)CC[C@@H]2c2ccc3sc(C)nc3c2)cc1C(N)=O (single isomer, unassigned) : < 50 nM

Value of IC50 reported for the compound CCc1cc(NC(=O)C(=O)N2C[C@@H](C)CC[C@@H]2c2ccc(N3CCOC4(CN(C)C4)C3)cc2)cnc1N (single isomer, unassigned) [Compound 1339] is < 50 nM

Record C[C@H]1CC[C@H](c2ccc(NCC(F)(F)F)cc2)N(C(=O)C(=O)Nc2cncc(C(N)=O)c2)C1 (single isomer, unassigned) . Reported IC50: > 500 nM

Value of measured IC50 for the entry C[C@H]1CC[C@H](c2ccc(Cl)cc2)N(C(=O)C(=O)Nc2cncc(C(N)=O)c2)C1 (single isomer, unassigned) : > 500 nM

Data point: `CCc1cc(NC(=O)C(=O)N2C[C@@H](C)CC[C@@H]2c2ccc3sc(-c4nccn4C)nc3c2)cnc1N` ; IC50 = < 50 nM

Short answer for Cc1cc(NC(=O)C(=O)N2C[C@@H](C)CC[C@@H]2c2cc(Cl)cc(Cl)c2)cnc1N (single isomer, unassigned) : IC50 was 50 to 500 nM

====

tested on: HAP1 MTAP-intact cell line; assay: SDMA in-cell western assay, HAP1 MTAP-intact; type: cell-based; details: Homo sapiens, HAP1, SDMA in-cell western, HAP1 MTAP-intact; read-out: MTAP HAP1 intact IC50
pIC50: −log10 of the molar value.
Result type: pIC50

Entry CNS(=O)(=O)c1cccc([C@@H]2CC[C@@H](C)CN2C(=O)C(=O)Nc2cncc(C(N)=O)c2)c1 (racemic) [Compound 666] — recorded pIC50 = < 6.00

Noted for C[C@@H]1CC[C@@H](c2ccc(F)c(F)c2)N(C(=O)C(=O)Nc2cncc(C(N)=O)c2)C1 (single isomer, unassigned) [Compound 474] : its pIC50 reads < 6.00

// COc1ncc(NC(=O)C(=O)N2C[C@H](C)CC[C@H]2c2ccc3c(c2)CC(=O)N3)cc1C(N)=O (single isomer, unassigned) [Compound 453] : pIC50 value = < 6.00

response.value for C[C@@H]1CC[C@@H](c2ccccc2)N(C(=O)C(=O)Nc2cnc(O)c(C(N)=O)c2)C1 (racemic) [Compound 494] (field: pIC50) = < 6.00

# pIC50 of CN(C)c1cccc([C@@H]2CCCCN2C(=O)C(=O)Nc2cncc(C(N)=O)c2)c1 (single isomer, unassigned) [Compound 365] = < 6.00

// pIC50 lookup, compound = CCc1cc(NC(=O)C(=O)N2C[C@@H](C)CC[C@@H]2c2ccc3sc(CN(C)C(C)C)nc3c2)cnc1N [Compound 1303] , result: 6.00 to 7.00

====

Task for the reader: assign each of the following compounds its reported IC50.
molecular target: PRMT5 (Homo sapiens, UniProt O14744); construct: purchased Viva (custom protein); assay: PRMT5 biochemical IC50 assay with no cofactor; conditions: PRMT5, no cofactor; read-out: No Cofactor/rel IC50

GET /value?item= Cc1cc(NC(=O)C(=O)N2C[C@H](C)CC[C@H]2c2cccc(C3CCN(C)CC3)c2)cnc1N (racemic) [Compound 1149] &field=IC50 returns 0.05 to 0.5 µM

The compound identified as C[C@@H]1CC[C@@H](c2cnc3[nH]ncc3c2)N(C(=O)C(=O)Nc2cncc(C(N)=O)c2)C1 (single isomer, unassigned) [Compound 550] registered its IC50 at > 0.5 µM

Data point: Cc1cc(NC(=O)C(=O)N2C[C@H](C)CC[C@H]2[C@H]2CC[C@H](C(C)(C)C)CC2)cnc1N (single isomer, unassigned) [Compound 260] ; IC50 = 0.05 to 0.5 µM

The reported IC50 of the compound C[C@@H]1CC[C@@H](c2ccc3c(c2)C(=O)NC3)N(C(=O)C(=O)Nc2cncc(C(N)=O)c2)C1 (single isomer, unassigned) [Compound 746] was < 0.05 µM

response.value for C[C@H]1CC[C@H](c2cc3cn[nH]c3cc2F)N(C(=O)C(=O)Nc2cncc(C(N)=O)c2)C1 (single isomer, unassigned) [Compound 553] (field: IC50) = 0.05 to 0.5 µM

Sure, the documented IC50 for COc1ncc(NC(=O)C(=O)N2C[C@H](C)CC[C@H]2c2ccc(-c3nccs3)cc2)cc1C(N)=O (single isomer, unassigned) [Compound 799] is > 0.5 µM
